B1: GNAI1 (parent)
chain: WIHCFEGVTAIIFCVALSDYDLVL

Variants of: B1
Experiment: protein stability index of a GFP-peptide fusion (GPS, HEK-293T) (PSI 1-6); higher = more stable;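 further: lentivirally expressed fusions sorted by FACS into six bins by GFP to DsRed ratio, PSI derived from sequencing read proportions per bin multiplied by bin number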
Settings: c terminus: a fixed tail appended
Would you kindly list protein stability index for each of these variants?
Lab note: write the figure by itself, no unit.

Input line: Return value of protein stability index for input "Y20G" , no commentary.
Output line: 2.45

Input line: Return value of protein stability index for input "Y20S" , no commentary.
Output line: 2.35

Input line: Return value of protein stability index for input "I11V" , no commentary.
Output line: 3.49

Input line: Return value of protein stability index for input "G7I" , no commentary.
Output line: 4.42

Input line: Return value of protein stability index for input "I12L" , no commentary.
Output line: 3.2

Input line: Return value of protein stability index for input "L17D" , no commentary.
Output line: 3.5

Input line: Return value of protein stability index for input "D19H" , no commentary.
Output line: 2.87

Input line: Return value of protein stability index for input "D19T" , no commentary.
Output line: 4.11

Input line: Return value of protein stability index for input "L24K" , no commentary.
Output line: 3.06

Input line: Return value of protein stability index for input "A10D" , no commentary.
Output line: 1.51

Input line: Return value of protein stability index for input "I11H" , no commentary.
Output line: 3.5

Input line: Return value of protein stability index for input "E6N" , no commentary.
Output line: 3.63

Input line: Return value of protein stability index for input "D21T" , no commentary.
Output line: 4.09

Input line: Return value of protein stability index for input "E6Y" , no commentary.
Output line: 2.48

Input line: Return value of protein stability index for input "V23I" , no commentary.
Output line: 2.7

Input line: Return value of protein stability index for input "G7Q" , no commentary.
Output line: 2.28

Input line: Return value of protein stability index for input "V15Y" , no commentary.
Output line: 3.25

Input line: Return value of protein stability index for input "I2T" , no commentary.
Output line: 2.12

Input line: Return value of protein stability index for input "A16L" , no commentary.
Output line: 3.16

Input line: Return value of protein stability index for input "F5S" , no commentary.
Output line: 2.75

Input line: Return value of protein stability index for input "L17N" , no commentary.
Output line: 2.67

Input line: Return value of protein stability index for input "I11S" , no commentary.
Output line: 4.32
